tested on: OVCAR-4 ovarian; assay: NCI tumour cell line growth inhibition, 48 h
Value Kind: TGI

Name the reported TGI value associated with the molecule "CCS/C(Nc1ccccc1)=C(\C#N)C(=O)N/N=C/c1ccc(Cl)cc1Cl" > 100 µM

Next: O=C1CSC(/C=C/c2ccccc2)N1c1ccc(-n2c(-c3ccccc3)nc3ccccc3c2=O)cc1 (stereo not drawn) 86.2 µM

Next: "CC[C@H](C)[C@H](NC(=O)C12CC(NC(C)=O)(C1)C2)C(=O)N(C)[C@H](C[C@@H](OC(C)=O)c1nc(C(=O)N[C@@H](Cc2ccccc2)C[C@H](C)C(=O)OC)cs1)C(C)C" > 16.7 µM

Next: "CC(=O)/C=C/C1=C(c2ccsc2)c2ccccc2CC1" > 100 µM

Next: OC(c1ccccc1)c1c(-c2ccccc2)oc(-c2ccccc2)c1C(O)c1ccccc1 (stereo not drawn) 7.99 µM

Please state TGI for every molecule in the list that follows.
1. Cc1ccc(S(=O)(=O)NCCSS(=O)(=O)c2ccc(C)cc2)cc1
2. NC1=NS(=O)(=O)Nc2nc(-c3cccs3)[nH]c21
3. C[C@]12CCCC(=O)C1C[C@H](C(=O)O)CC2 (stereo partly drawn)
4. OC1(c2ccc3ccccc3c2)c2ccc3ccccc3c2C2=NCCN21 (stereo not drawn)
5. CC(O)=NC(Cc1ccc2ccccc2c1)C(O)=NC(Cc1ccc(Cl)cc1)C(O)=NC(Cc1c[nH]c2ccccc12)C(O)=NC(CO)C(O)=NC(Cc1ccc(O)cc1)C(O)=NC(CCCN=C(N)N)C(O)=NC(CC(C)C)C(O)=NC(CCCN=C(N)N)C(=O)N1CCCC1C(O)=NC(C)C(=N)O (stereo not drawn)
6. COc1ccc2[nH]c3c(C)c4cnccc4c(C)c3c2c1
7. CCc1oc2ccc(OC)c3c2c1C=CC=C3

1: > 100 µM; 2: > 100 µM; 3: > 100 µM; 4: 85.8 µM; 5: > 100 µM; 6: 5.17 µM; 7: > 100 µM

----------
system: SK-MEL-28 melanoma; assay: NCI tumour cell line growth inhibition, 48 h
I'd be grateful if you could share measured TGI for these entries.

A selection of reference data follows.
Name the reported TGI value associated with the compound "CC(C)(C)OC(=O)N/N=C(/N)c1ccccc1" > 100 µM

Next: COC(=O)C1=Cc2c(OC)cc(OC)c(OC)c2[C@H](c2cc(OC)c(OC)cc2OC)C1C(=O)OC (some centres undefined) > 100 µM

Next: "O=C(O)Cc1ccc2c(c1O)C(=O)c1c(ccc(CC(=O)O)c1O)C2=O" > 100 µM

Next: "CC[N+](CC)(CC)/C(=N/S(=O)(=O)c1cc(C)c(Cl)cc1S)[N-]S(=O)(=O)c1ccc(Cl)cc1" > 100 µM

Next: "COc1cc(/C=C/C(=O)c2ccc(Nc3nc(Nc4ccccc4)nc(Nc4ccc(Cl)cc4)n3)cc2)cc(OC)c1OC" > 32.5 µM

Please state TGI for every compound in the list that follows.
1. ClCC1(CCl)COC1
2. CC(C)c1cccc(C(C)C)c1NC1=CC(=O)C(=O)c2ccccc21
3. CNC(=O)OCCN1c2ccccc2Sc2ccccc21
4. O=S(Cc1cc2c(cc1Br)OCO2)c1ccccc1 (centres undefined)

> 100 µM
> 100 µM
> 100 µM
> 100 µM

----------
tested on: MDA-MB-231 breast; test: NCI tumour cell line growth inhibition, 48 h; in the data active = GI50 below about 0.43 µM; inactive = the rest
Please reply with one of these outcomes: active, inactive

Example entries and their recorded answers appear below.
Which result was noted for this molecule in the test: "N#CC(C#N)=Cc1ccc(-c2ccc(-c3nc4ccccc4o3)cc2)o1" inactive

Next: "C=C(C)[C@@H]1CC[C@]2(C)[C@H](C=CC3=C4C[C@@](C)(CO)CC[C@]4(C)CC[C@]32C)[C@@]1(C)CCCN" inactive

Next: "Cc1cc2nc3c4ccccc4n(CCN(C)C)c3nc2cc1C" inactive

Next: "COc1ccc(-c2cncn2-c2cc(OC)c(OC)c(OC)c2)cc1F" active

// switching to the query molecule
Which result was noted for this molecule in the test: "O=C(/C=C/c1cccc(B(O)O)c1)c1cccc(B(O)O)c1" inactive

----------
tested on: SF-268 CNS; assay: NCI tumour cell line growth inhibition, 48 h
Value Kind: TGI

A selection of reference data follows.
Name the reported TGI value associated with the compound O=[N+]([O-])c1ccc(N2N=C(c3ccc4ccccc4c3O)CC2c2ccc(Cl)cc2Cl)c([N+](=O)[O-])c1 (centres undefined) > 100 µM

Next: "C[C@@H]1CN2[C@H]3[C@@H]1CC[C@]31CCC(=O)O[C@]1(C)[C@@H]1CC[C@H]3CCC=C3[C@@H]12" > 70 µM

Next: "CN(NC(=O)c1cccs1)C1=NCCN1" > 100 µM

Next: Cc1cc(-c2nc3cc(F)ccc3s2)ccc1NC(=O)C(C)N (centres undefined) 9.5 µM

Next: COP(=O)(C(/C=C/c1ccccc1)OC(C)=O)[C@@H]1CCCC[C@H]1N(CC(C)(C)C)C(C)=O (some centres undefined) 40.8 µM

Please state TGI for every compound in the list that follows.
1. CCCCCn1cnc2c1S(=O)(=O)N(C)C(NC(=O)c1ccccc1)=N2
2. N#C/C(=C\c1ccc(O)cc1O)C(N)=O
3. COc1ccc(C2S/C(=C\c3cccc(O)c3)C(=O)N2NC(=O)Cc2ccccc2)cc1 (centres undefined)
4. O=C(/C=C/c1ccc(F)c(F)c1)OCCc1ccccc1
5. CCOC(=O)CCC(NC(=O)c1ccc(Oc2nc3ccccc3nc2C(=O)OCC)cc1)C(=O)OCC (centres undefined)

> 100 µM
> 100 µM
> 100 µM
> 100 µM
> 100 µM

Please state TGI for every compound in the list that follows.
1. CO[C@H](c1ccccc1)[C@H](C)N(C)c1ccc2ccccc2c1C1=NC(C)(C)CO1
2. CC1=NN(c2ccccc2)C(=O)C1=C1SCCCS1
3. Cn1c2c(cc(-c3ccccc3)c1=O)COc1ccccc1-2
4. COc1ccccc1OC(=O)/C=C/c1ccccc1

["36.1 µM", "> 100 µM", "> 100 µM", "> 100 µM"]

----------
system: COLO 205 colon; experiment: NCI tumour cell line growth inhibition, 48 h
I'd be grateful if you could share measured TGI for these entries.
One number for each entry, in µM.

Name the reported TGI value associated with the compound "C=C=[CH][Sn]([c]1ccccc1)([c]1ccccc1)[c]1ccccc1" 2.87

Please state TGI for every compound in the list that follows.
1. CCN1C(=O)N(CC)C2C1NN=c1s/c(=C\c3ccccc3)c(=O)n12 (stereo unspecified)
2. CCNCCNc1cc(-c2cccc(C(F)(F)F)c2)c(C#N)c2nc3ccccc3n12

[0.657, 1.99]

Please state TGI for every compound in the list that follows.
1. COc1ccc2[nH]c3c(C)c4cnccc4c(C)c3c2c1
2. CC(OCc1ccccc1)C(NC(=O)C1CSSCC(NC(=O)C(Cc2ccccc2)NC(=O)OCc2ccccc2)C(=O)NC(Cc2ccccc2)C(=O)NC(Cc2cn(C=O)c3ccccc23)C(=O)NC(CCCCNC(=O)OCc2ccccc2)C(=O)NC(C(C)OCc2ccccc2)C(=O)N1)C(N)=O (stereo unspecified)
3. Cc1cc2c(cc1C)[n+]([O-])c(-c1c(Cl)cccc1Cl)c(N)[n+]2[O-]

4.44
10.5
38.4

Name the reported TGI value associated with the compound "ClC1=C(Cl)C(Cl)=C(Cl)C1=Cc1ccc(Cl)cc1" 1.52

----------
I'd be grateful if you could share measured TGI for these entries.
test system: OVCAR-4 ovarian; assay: NCI tumour cell line growth inhibition, 48 h

A selection of reference data follows.
Name the reported TGI value associated with the compound "COc1ccc(-n2cc(-c3ccc(OC)c(OC)c3)nc2SCc2ccccc2)cc1Cl" > 100 µM

Next: "Nc1cccc2nsnc12" > 100 µM

Next: "O=C1C=C(Nc2ccccc2C(=O)CC(=O)C(=O)Nc2ccc(Cl)c(Cl)c2)c2ccccc2C1=O" > 100 µM

Please state TGI for every compound in the list that follows.
1. C1=c2ccccc2=C2C(=C(c3ccccc3)C(c3ccccc3)=NN2c2ccccc2)S1
2. Oc1ccc2ccccc2c1Cc1c(O)ccc2ccccc12
3. Cc1cccc(N=C2NC(=O)C(CC(=O)Nc3ccc(Cl)cc3C)S2)c1 (stereo unspecified)
4. COc1ccc(C(=O)c2ccc(-n3c4ccccc4c4ccc5c(c43)C(=O)C=CC5=O)cc2)cc1
5. C[C@@H](Oc1cc(-c2cnn(C3CC4(CCCNC4)C3)c2)cnc1N)c1c(Cl)ccc(F)c1Cl (stereo partly specified)
6. C=C1CC(C/C=C(\C)CC2CC(=C)C(=O)O2)OC1=O (stereo unspecified)
7. CSc1ccc(C2=NN(C(=O)c3ccc(N)cc3)C(c3ccc(F)cc3)C2)cc1 (stereo unspecified)

1: > 100 µM; 2: 30.6 µM; 3: > 100 µM; 4: 6.37 µM; 5: 5.56 µM; 6: > 100 µM; 7: 31.9 µM

Name the reported TGI value associated with the compound CCN1C(=O)N(CC)C2C1NN=c1s/c(=C\c3ccccc3)c(=O)n12 (stereo unspecified) > 100 µM
